assay: Half life in rat; assay type: ADME, organism-based; conditions: in vivo
property-name: half-life (h)

# compound-structure-string, property-name, unit-abbrev, experimental-value
measured = [
    ("Cc1ccc2c(N3CCN(CCc4ccc5c(c4)N(C)C(=O)CO5)CC3)cccc2n1", "half-life", "h", 4.4),
    ("Cc1ccc2c(N3CCN(CCc4ccc5c(c4)NC(=O)CO5)CC3)cccc2n1", "half-life", "h", 5.1),
    ("Cc1ncc2c(N3CCN(CCc4ccc5c(c4)NC(=O)CO5)CC3)cccc2n1", "half-life", "h", 2.8),
]

====

biological target: Sodium-dependent serotonin transporter (Homo sapiens, UniProt P31645)
Sequence (P31645 whole entry): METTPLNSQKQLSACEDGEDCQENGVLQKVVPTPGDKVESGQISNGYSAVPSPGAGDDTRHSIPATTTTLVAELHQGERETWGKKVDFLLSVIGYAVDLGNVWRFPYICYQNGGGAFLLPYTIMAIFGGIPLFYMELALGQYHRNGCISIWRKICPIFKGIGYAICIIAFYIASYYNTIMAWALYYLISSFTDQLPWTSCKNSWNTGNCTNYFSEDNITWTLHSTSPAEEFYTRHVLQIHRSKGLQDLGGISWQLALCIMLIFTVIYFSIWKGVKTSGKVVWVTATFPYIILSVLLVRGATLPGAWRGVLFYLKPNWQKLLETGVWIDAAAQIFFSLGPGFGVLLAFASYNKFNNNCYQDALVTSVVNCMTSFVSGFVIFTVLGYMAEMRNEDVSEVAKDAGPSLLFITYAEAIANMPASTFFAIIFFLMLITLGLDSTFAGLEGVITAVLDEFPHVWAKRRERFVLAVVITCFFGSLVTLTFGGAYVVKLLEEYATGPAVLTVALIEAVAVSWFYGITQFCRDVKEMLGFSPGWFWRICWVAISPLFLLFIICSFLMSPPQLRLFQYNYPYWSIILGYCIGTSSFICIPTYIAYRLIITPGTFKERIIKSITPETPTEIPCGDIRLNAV
Response field label: string, one of label 1 (Ki strictly below 2 nM) or label 0.

# compound, tested-on, classification
rows = [
    ("Cc1ccc2c(N3CCN(CCc4ccc5c(c4)NC(=O)CO5)CC3)cc(Cl)cc2n1", "Sodium-dependent serotonin transporter (Homo sapiens, UniProt P31645)", "label 1"),
    ("Cc1ccc2c(N3CCN(CCc4ccc5c(c4)NC(=O)CO5)[C@@H](C)C3)cccc2n1", "Sodium-dependent serotonin transporter (Homo sapiens, UniProt P31645)", "label 1"),
    ("O=C1COc2ccc(CCN3CCN(c4cccc5nc(-c6ccccc6)ccc45)CC3)cc2N1", "Sodium-dependent serotonin transporter (Homo sapiens, UniProt P31645)", "label 1"),
    ("Cc1ccc2c(N3CCN(CCc4ccc5c(c4)NC(=O)CO5)CC3)cc(F)cc2n1", "Sodium-dependent serotonin transporter (Homo sapiens, UniProt P31645)", "label 1"),
    ("Cc1ccc2c(N3C[C@H]4C[C@@H]3CN4CCc3ccc4c(c3)NC(=O)CO4)cccc2n1", "Sodium-dependent serotonin transporter (Homo sapiens, UniProt P31645)", "label 0"),
    ("O=C1COc2ccc(CCN3CCN(c4cccc5cccnc45)CC3)cc2N1", "Sodium-dependent serotonin transporter (Homo sapiens, UniProt P31645)", "label 0"),
    ("Cc1ccc2c(N3CCN(CCc4ccc5c(c4)NC(=O)CO5)CC3C)cccc2n1 (stereo unspecified)", "Sodium-dependent serotonin transporter (Homo sapiens, UniProt P31645)", "label 0"),
    ("Cc1ccc2c(N3CCN(CCc4cc(F)c5c(c4)NC(=O)CO5)CC3)cccc2n1", "Sodium-dependent serotonin transporter (Homo sapiens, UniProt P31645)", "label 1"),
    ("Cc1ccc2c(N3CCN(CCc4ccc5c(c4)NC(=O)CO5)CC3)ccc(Cl)c2n1", "Sodium-dependent serotonin transporter (Homo sapiens, UniProt P31645)", "label 1"),
    ("Cc1cc(N2CCN(CCc3ccc4c(c3)NC(=O)CO4)CC2)c2ccc(C)nc2c1", "Sodium-dependent serotonin transporter (Homo sapiens, UniProt P31645)", "label 0"),
    ("Cc1cc2c(N3CCN(CCc4ccc5c(c4)NC(=O)CO5)CC3)cccc2[nH]1", "Sodium-dependent serotonin transporter (Homo sapiens, UniProt P31645)", "label 0"),
]

====

target: 5-hydroxytryptamine receptor 1B (Homo sapiens, UniProt P28222); assay: Intrinsic activity at human 5HT1B receptor expressed in CHO cells by [S35]GTPgammaS binding assay relative to serotonin; assay type: functional, cell-based
Sequence (P28222 whole entry): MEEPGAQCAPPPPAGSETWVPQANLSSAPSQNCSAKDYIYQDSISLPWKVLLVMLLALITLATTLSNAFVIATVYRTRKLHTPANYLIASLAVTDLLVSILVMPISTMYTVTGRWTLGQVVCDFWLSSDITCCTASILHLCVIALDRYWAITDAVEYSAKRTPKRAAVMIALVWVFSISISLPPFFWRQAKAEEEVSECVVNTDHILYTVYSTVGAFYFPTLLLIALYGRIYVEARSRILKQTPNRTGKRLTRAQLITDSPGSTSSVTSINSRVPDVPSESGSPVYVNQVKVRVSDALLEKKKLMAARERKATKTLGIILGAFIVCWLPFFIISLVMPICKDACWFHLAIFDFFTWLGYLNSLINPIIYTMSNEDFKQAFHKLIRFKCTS
# reported Intrinsic activity; entries follow
property-name: Intrinsic activity

# compound, tested-on, experimental-value
rows = [
    ("Cc1ccc2c(N3C[C@H]4C[C@@H]3CN4CCc3ccc4c(c3)NC(=O)CO4)cccc2n1", "5-hydroxytryptamine receptor 1B (Homo sapiens, UniProt P28222)", 0.2),
    ("Cc1ccc2c(N3CCN(CCc4ccc5c(c4)NC(=O)CO5)[C@@H](C)C3)cccc2n1", "5-hydroxytryptamine receptor 1B (Homo sapiens, UniProt P28222)", 0),
    ("Cc1ccc2c(N3CCN(CCc4ccc5c(c4)NC(=O)CO5)CC3)ccc(Cl)c2n1", "5-hydroxytryptamine receptor 1B (Homo sapiens, UniProt P28222)", 0.3),
    ("Cc1ccc2c(N3CCN(CCc4ccc5c(c4)NC(=O)CO5)CC3)ccc(F)c2n1", "5-hydroxytryptamine receptor 1B (Homo sapiens, UniProt P28222)", 0),
    ("O=C1COc2ccc(CCN3CCN(c4cccc5nc(-c6ccccc6)ccc45)CC3)cc2N1", "5-hydroxytryptamine receptor 1B (Homo sapiens, UniProt P28222)", 0.2),
    ("Cc1ccc2c(N3CCN(CCc4ccc5c(c4)NC(=O)CO5)CC3C)cccc2n1 (stereo unspecified)", "5-hydroxytryptamine receptor 1B (Homo sapiens, UniProt P28222)", 0.1),
    ("CC1(C)Cc2cccc(N3CCN(CCc4ccc5c(c4)NC(=O)CO5)CC3)c2O1", "5-hydroxytryptamine receptor 1B (Homo sapiens, UniProt P28222)", 0.6),
    ("Cc1ccc2c(N3CCN(CCc4ccc5c(c4)NC(=O)CO5)[C@H](C)C3)cccc2n1", "5-hydroxytryptamine receptor 1B (Homo sapiens, UniProt P28222)", 0),
    ("Cc1ncc2c(N3CCN(CCc4ccc5c(c4)NC(=O)CO5)CC3)cccc2n1", "5-hydroxytryptamine receptor 1B (Homo sapiens, UniProt P28222)", 0.2),
    ("Cc1ccc2c(N3CCN(CCc4ccc5c(c4)NC(=O)CO5)CC3)cccc2n1", "5-hydroxytryptamine receptor 1B (Homo sapiens, UniProt P28222)", 0.1),
    ("Cc1ccc2c(N3CCN(CCc4ccc5c(c4)NC(=O)CO5)CC3)cc(Cl)cc2n1", "5-hydroxytryptamine receptor 1B (Homo sapiens, UniProt P28222)", 0),
    ("Cc1ccc2c(N3CCN(CCc4ccc5c(c4)N(C)C(=O)CO5)CC3)cccc2n1", "5-hydroxytryptamine receptor 1B (Homo sapiens, UniProt P28222)", 0.2),
    ("Cc1cc2c(N3CCN(CCc4ccc5c(c4)NC(=O)CO5)CC3)cccc2[nH]1", "5-hydroxytryptamine receptor 1B (Homo sapiens, UniProt P28222)", 0.4),
    ("Cc1ccc2c(N3CCN(CCc4ccc5c(c4F)NC(=O)CO5)CC3)cccc2n1", "5-hydroxytryptamine receptor 1B (Homo sapiens, UniProt P28222)", 0.2),
    ("CCN1C(=O)COc2ccc(CCN3CCN(c4cccc5nc(C)ccc45)CC3)cc21", "5-hydroxytryptamine receptor 1B (Homo sapiens, UniProt P28222)", 0),
    ("O=C1COc2ccc(CCN3CCN(c4nccc5ccccc45)CC3)cc2N1", "5-hydroxytryptamine receptor 1B (Homo sapiens, UniProt P28222)", 0.5),
    ("Cc1cc(N2CCN(CCc3ccc4c(c3)NC(=O)CO4)CC2)c2ccc(C)nc2c1", "5-hydroxytryptamine receptor 1B (Homo sapiens, UniProt P28222)", 0.3),
    ("Cc1ccc2c(N3CCN(CCc4ccc5c(c4)NC(=O)CO5)CC3)cc(F)cc2n1", "5-hydroxytryptamine receptor 1B (Homo sapiens, UniProt P28222)", 0),
    ("Cc1ccc2c(N3CCN(CCc4cc(F)c5c(c4)NC(=O)CO5)CC3)cccc2n1", "5-hydroxytryptamine receptor 1B (Homo sapiens, UniProt P28222)", 0.3),
    ("O=C1COc2ccc(CCN3CCN(c4cccc5cccnc45)CC3)cc2N1", "5-hydroxytryptamine receptor 1B (Homo sapiens, UniProt P28222)", 0.7),
    ("Cc1ccc2c(N3CCN(CCc4cc5c(cc4F)OCC(=O)N5)CC3)cccc2n1", "5-hydroxytryptamine receptor 1B (Homo sapiens, UniProt P28222)", 0.1),
]
